Attribute: clearance
test: Total body clearance in human; settings: in vivo

[
  {
    "COMPOUND": "CC[C@H]1OC(=O)[C@H](C)[C@@H](O[C@H]2C[C@@](C)(OC)[C@@H](O)[C@H](C)O2)[C@H](C)[C@@H](O[C@@H]2O[C@H](C)C[C@H](N(C)C)[C@H]2O)[C@](C)(O)C[C@@H](C)CN(C)[C@H](C)[C@@H](O)[C@]1(C)O [AZITHROMYCIN]",
    "clearance (mL/min/kg)": 10
  },
  {
    "COMPOUND": "Nc1nc(=O)[nH]cc1F [FLUCYTOSINE]",
    "clearance (mL/min/kg)": 2
  },
  {
    "COMPOUND": "O=C1Nc2ccc(Cl)cc2C(c2ccccc2Cl)=NC1O (configuration not stated) [LORAZEPAM]",
    "clearance (mL/min/kg)": 1
  },
  {
    "COMPOUND": "CC1(C)S[C@@H]2[C@H](NC(=O)[C@H](C(=O)O)c3ccsc3)C(=O)N2[C@H]1C(=O)O [TICARCILLIN]",
    "clearance (mL/min/kg)": 2.2
  },
  {
    "COMPOUND": "CN(C)CCc1c[nH]c2ccc(Cn3cncn3)cc12 [RIZATRIPTAN]",
    "clearance (mL/min/kg)": 19
  },
  {
    "COMPOUND": "CCCCCCCN(CC)CCCC(O)c1ccc(NS(C)(=O)=O)cc1 (configuration not stated) [IBUTILIDE]",
    "clearance (mL/min/kg)": 25
  },
  {
    "COMPOUND": "CCN1CCCC1CNC(=O)c1cc(S(N)(=O)=O)ccc1OC (configuration not stated) [SULPIRIDE]",
    "clearance (mL/min/kg)": 1.83
  },
  {
    "COMPOUND": "CC(C)N(CCC(C(N)=O)(c1ccccc1)c1ccccn1)C(C)C (configuration not stated) [DISOPYRAMIDE]",
    "clearance (mL/min/kg)": 0.9
  },
  {
    "COMPOUND": "O=[N+]([O-])O[C@@H]1CO[C@H]2[C@@H]1OC[C@@H]2O [ISOSORBIDE MONONITRATE]",
    "clearance (mL/min/kg)": 2
  },
  {
    "COMPOUND": "C=CC1=C(C(=O)O)N2C(=O)[C@@H](NC(=O)/C(=N\\OCC(=O)O)c3csc(N)n3)[C@H]2SC1 [CEFIXIME]",
    "clearance (mL/min/kg)": 1
  },
  {
    "COMPOUND": "CC1=NS(=O)(=O)c2cc(Cl)ccc2N1 [DIAZOXIDE]",
    "clearance (mL/min/kg)": 0.06
  },
  {
    "COMPOUND": "COc1cccc2c1C(=O)c1c(O)c3c(c(O)c1C2=O)C[C@@](O)(C(=O)CO)C[C@@H]3O[C@H]1C[C@H](N)[C@@H](O)[C@H](C)O1 [EPIRUBICIN]",
    "clearance (mL/min/kg)": 20
  },
  {
    "COMPOUND": "CC1COc2c(N3CCN(C)CC3)c(F)cc3c(=O)c(C(=O)O)cn1c23 (configuration not stated) [OFLOXACIN]",
    "clearance (mL/min/kg)": 3.5
  },
  {
    "COMPOUND": "Nc1nc2c(c(=O)[nH]1)N(C=O)C(CNc1ccc(C(=O)N[C@@H](CCC(=O)O)C(=O)O)cc1)CN2 (some centres not stated) [LEUCOVORIN]",
    "clearance (mL/min/kg)": 5.3
  },
  {
    "COMPOUND": "CCS(=O)(=O)CCn1c([N+](=O)[O-])cnc1C [TINIDAZOLE]",
    "clearance (mL/min/kg)": 0.6
  },
  {
    "COMPOUND": "Clc1cccc(Cl)c1N=C1NCCN1 [CLONIDINE]",
    "clearance (mL/min/kg)": 4
  },
  {
    "COMPOUND": "N=C(N)NC(=O)Cc1c(Cl)cccc1Cl [GUANFACINE]",
    "clearance (mL/min/kg)": 5.9
  }
]
